# assay target: ROMK (Kir1.1) channel (Homo sapiens, UniProt P48048)
# Sequence (P48048 1-391): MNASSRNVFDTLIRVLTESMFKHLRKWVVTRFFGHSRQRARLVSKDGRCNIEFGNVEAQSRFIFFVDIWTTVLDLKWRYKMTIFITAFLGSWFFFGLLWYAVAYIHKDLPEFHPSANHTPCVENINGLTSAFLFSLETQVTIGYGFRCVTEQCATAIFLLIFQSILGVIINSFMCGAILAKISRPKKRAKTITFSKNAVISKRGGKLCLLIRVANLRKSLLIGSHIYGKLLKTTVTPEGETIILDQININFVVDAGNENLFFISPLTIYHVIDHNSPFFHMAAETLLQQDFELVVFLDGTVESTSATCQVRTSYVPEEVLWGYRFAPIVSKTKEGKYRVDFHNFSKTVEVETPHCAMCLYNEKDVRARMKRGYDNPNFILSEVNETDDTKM
# experiment description: Thallium Flux Assay
observed property: pIC50
Answers are plain numbers, as −log10 of the molar value.

Below, each entry is followed by its recorded pIC50 result.
Cc1c(N2CCC3(CCN(C[C@H](O)c4cnc(-n5cnnn5)cn4)CC3)CC2)c(=O)c1=O
7.10
CC1=C(N2CCC3(CC2)CCN([C@H](CO)c2ccc(-n4cnnn4)cc2C)CC3)COC1=O
6.63
CC1=C(N2CCC3(CCN(C[C@@H](O)c4cncc(-n5cnnn5)n4)CC3)CC2)COC1=O
6.96

Each compound below has a reported value. Please supply its pIC50.
1. O=C1C=C(N2CCC3(CCN(C(=O)Cc4ccc(-n5cnnn5)cc4)CC3)CC2)CO1
2. CC1=C(N2CCC3(CCN(C[C@@H](O)c4ccc(-n5cnnn5)cc4)CC3)CC2)COC1=O
3. CC1=C(N2CCC3(CCN(C[C@@H](O)c4cccc(-n5cnnn5)c4)CC3)CC2)COC1=O
4. O=C1C=C(N2CCC3(CCN(C[C@H](O)c4ccc(-n5cnnn5)nn4)CC3)CC2)CO1
5. C[C@H]1Cc2cc([C@@H](O)CN3CCC4(CC3)CCN(C3=CC(=O)OC3)CC4)ccc2C(=O)O1
6. Cc1c([C@@H](O)CN2CCC3(CC2)CCN(c2c(C)c(=O)c2=O)CC3)ccc2c1COC2=O
7. CC1=C(N2CCC3(CCN(C[C@@H](O)c4ccc(-n5cnnn5)cn4)CC3)CC2)COC1=O
8. Cc1c([C@@H](O)CN2CCC3(CC2)CCN(C2=CC(=O)OC2)CC3)ccc2c1COC2=O

Result block:
1: 6.94; 2: 7.80; 3: 7.49; 4: 7.39; 5: 6.74; 6: 7.52; 7: 7.43; 8: 7.31

* * *

# assay target: UniProtKB P48048
# experiment description: Thallium Flux Assay
The label is 1 (yes) for IC50 below 100 nM and 0 (no) for IC50 equal to or exceeding 100 nM.

Record excerpt, results attached:
O=C1C=C(N2CCC3(CCN(CCc4ccc5c(c4)COC5=O)CC3)CC2)CO1 [Example 1]
1 (yes)
CO[C@H](CN1CCC2(CC1)CCN(C1=CC(=O)OC1)CC2)c1ccc2c(c1C)COC2=O [Example 90]
0 (no)
O=C1C=C(N2CCC3(CCN(CC(O)c4cnc(-n5cnnn5)nc4)CC3)CC2)CO1 (centres unmarked) [Example 15]
0 (no)
CC1=C(N2CCC3(CCN(C[C@H](O)c4ccc5c(c4C)COC5=O)CC3)[C@H](F)C2)COC1=O [Example 35]
0 (no)
CO[C@H]1CN(C2=C(C)C(=O)OC2)CCC12CCN(C[C@H](O)c1ccc3c(c1C)COC3=O)CC2 [Example 97]
1 (yes)
CC1=C(N2CCC3(CCN(C[C@H](O)c4cncc(-n5cnnn5)c4)CC3)CC2)COC1=O [Example 63]
0 (no)
CC1=C(N2CCC3(CCN(C[C@H](O)c4ccc(-n5cnnn5)nc4C)CC3)CC2=O)COC1=O [Example 29]
0 (no)

Then there is this molecule:
Query block: For this molecule, is IC50 lower than 100 nM? CCc1c(N2CCC3(CCN(C[C@H](O)c4ccc5c(c4C)COC5=O)CC3)CC2)c(=O)c1=O [Example 79]
Result block: 0 (no)
